# assayed.system: Free fatty acid receptor 1 (Homo sapiens, UniProt O14842)
# Sequence (O14842 whole entry): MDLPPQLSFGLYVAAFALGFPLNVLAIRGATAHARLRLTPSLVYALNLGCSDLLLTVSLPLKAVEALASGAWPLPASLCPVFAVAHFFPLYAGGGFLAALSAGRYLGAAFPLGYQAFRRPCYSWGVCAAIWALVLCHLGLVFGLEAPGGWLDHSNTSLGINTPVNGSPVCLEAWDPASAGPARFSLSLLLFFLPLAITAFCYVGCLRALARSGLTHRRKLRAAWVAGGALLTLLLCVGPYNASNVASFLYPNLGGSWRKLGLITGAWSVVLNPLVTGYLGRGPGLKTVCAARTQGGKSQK
# measurement.protocol: Agonist activity at human GPR40 expressed in human 1321N1 cells assessed as IP1 accumulation after 1 hr by HTRF assay
pEC50: −log10 of the molar value.
measurement.kind: pEC50

[
  {
    "molecule": "Cc1cc(OCC2CCOC2)cc(C)c1-c1ccc(F)c2c1CC[C@H]2Nc1ccc([C@H]2C[C@@H]2C(=O)O)nc1 (stereo not given in full)",
    "measurement.kind": "pEC50",
    "reported.measurement": 8.15
  },
  {
    "molecule": "Cc1cc(-c2cccc(=O)n2C)cc(C)c1-c1ccc(F)c2c1CC[C@H]2Nc1ccc([C@H]2C[C@@H]2C(=O)O)nc1",
    "measurement.kind": "pEC50",
    "reported.measurement": 8.40
  },
  {
    "molecule": "Cc1cc(OCCC(C)(C)O)cc(C)c1-c1ccc(F)c2c1CC[C@H]2Nc1ccc([C@H]2C[C@@H]2C(=O)O)nc1",
    "measurement.kind": "pEC50",
    "reported.measurement": 7.96
  }
]

1. Cc1cc(-c2nnn(CC(C)(C)O)n2)cc(C)c1-c1ccc(F)c2c1CC[C@H]2Nc1ccc([C@H]2C[C@@H]2C(=O)O)nc1
2. CNC(=O)c1cc(C)c(-c2ccc(F)c3c2CC[C@H]3Nc2ccc([C@H]3C[C@@H]3C(=O)O)nc2)c(C)c1
Request: When their pEC50 values are compared, which is larger, 1 or 2 ? In your reply, give the label of the chosen option.
Result: 1
(1: 8.70, 2: 6.83)

Origin of values: ChEMBL document CHEMBL4196229
